Target: T1, cynomolgus monkey C-KIT-Fc protein (cynomolgus monkey)
T1 construct: also called cyno C-KIT-Fc; cyno C-KIT
Assay: HTRF competition vs terbium-labelled h37M IgG1
Classify: criterion met when IC50 is strictly less than 0.08 µg/mL; criterion not met when IC50 is not.

Some solved cases for reference:
BINDER	CLASS_ASSIGNMENT
MH11 (antibody, human IgG1, V domains shown, graft frameworks; substitutions derived; human IgG1; also called C-KIT-MH11) VH: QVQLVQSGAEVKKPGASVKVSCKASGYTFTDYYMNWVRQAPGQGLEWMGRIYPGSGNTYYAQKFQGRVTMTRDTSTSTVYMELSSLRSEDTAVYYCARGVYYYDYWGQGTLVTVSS VL: DIQMTQSPSSLSASVGDRVTITCRASQGIRTNLAWFQQKPGKAPKSLIYAASSLQSGVPSRFSGSGSGTDFTLTISSLQPEDFATYYCQQYNAYPRTFGGGTKVEIK	criterion not met
D-A10 (antibody, human IgG1, V domains shown, graft frameworks; substitutions derived; human IgG1; also called C-KIT-D-A10) VH: QVQLVQSGAEVKKPGASVKVSCKASGYTFTDYYMNWVRQAPGQGLEWMGRIYPGSGNTYYAQKFQGRVTMTRDTSTSTVYMELSSLRSEDTAVYYCARGVYYFDTWGQGTLVTVSS VL: DIQMTQSPSSLSASVGDRVTITCRASQGVRTNLAWFQQKPGKAPKSLIYAASSRQSGVPSRFSGSGSGTDFTLTISSLQPEDFATYYCQQYNSYPRTFGGGTKVEIK	criterion met
C-B12 (antibody, human IgG1, V domains shown, graft frameworks; substitutions derived; human IgG1; also called C-KIT-C-B12) VH: QVQLVQSGAEVKKPGASVKVSCKASGYTFTDYYMNWVRQAPGQGLEWMGRIYPGSGNTYYAQKFQGRVTMTRDTSTSTVYMELSSLRSEDTAVYYCARGVYEFDYWGQGTLVTVSS VL: DIQMTQSPSSLSASVGDRVTITCRASQGVRNNLAWFQQKPGKAPKSLIYAASYRQSGVPSRFSGSGSGTDFTLTISSLQPEDFATYYCQQYNSYPRTFGGGTKVEIK	criterion not met
MH5 IgG1 (antibody, V domains shown, human IgG1; also called C-KIT-MH5) VH: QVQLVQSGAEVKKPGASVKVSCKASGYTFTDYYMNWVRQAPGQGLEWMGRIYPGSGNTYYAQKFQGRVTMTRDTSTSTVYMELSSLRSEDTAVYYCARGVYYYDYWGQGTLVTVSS VL: DIQMTQSPSSLSASVGDRVTITCRASQGIRTNLAWFQQKPGKAPKSLIYSASSLQSGVPSRFSGSGSGTDFTLTISSLQPEDFATYYCQQYANYPRTFGGGTKVEIK	criterion met
E-E10 (antibody, human IgG1, V domains shown, graft frameworks; substitutions derived; human IgG1; also called C-KIT-E-E10) VH: QVQLVQSGAEVKKPGASVKVSCKASGYTFTDYYMNWVRQAPGQGLEWMGRIYPGSGNTYYAQKFQGRVTMTRDTSTSTVYMELSSLRSEDTAVYYCARGVWYFDYWGQGTLVTVSS VL: DIQMTQSPSSLSASVGDRVTITCRASQGVRTNVAWFQQKPGKAPKSLIYSASSLQSGVPSRFSGSGSGTDFTLTISSLQPEDFATYYCQQYNSYPRTFGGGTKVEIK	criterion not met
E-C7 (antibody, human IgG1, V domains shown, human IgG1; also called C-KIT-E-C7) VH: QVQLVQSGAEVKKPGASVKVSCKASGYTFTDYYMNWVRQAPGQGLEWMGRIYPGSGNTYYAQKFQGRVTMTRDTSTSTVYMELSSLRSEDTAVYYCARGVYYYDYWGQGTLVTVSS VL: DIQMTQSPSSLSASVGDRVTITCRASQGIRTNLAWFQQKPGKAPKSLIYSASSLQSGVPSRFSGSGSGTDFTLTISSLQPEDFATYYCQQYNSYPRTFGGGTKVEIK	criterion met

Then this binder:
Problem: Take the binder F-F2 (antibody, human IgG1, V domains shown, graft frameworks; substitutions derived; human IgG1; also called C-KIT-F-F2) VH: QVQLVQSGAEVKKPGASVKVSCKASGYTFTDYYMNWVRQAPGQGLEWMGRIYPGSGNTYYAQKFQGRVTMTRDTSTSTVYMELSSLRSEDTAVYYCARGVYYQDYWGQGTLVTVSS VL: DIQMTQSPSSLSASVGDRVTITCRASQGVRTNVAWFQQKPGKAPKSLIYAASSRQSGVPSRFSGSGSGTDFTLTISSLQPEDFATYYCQQYNSYPRTFGGGTKVEIK and say whether its IC50 is less than 0.08 µg/mL.
Result: criterion not met

Data provenance: patent US20230212285A1
